Experiment: P. aeruginosa biofilm formation inhibitors, primary screen, PAO1 strain, BacTiter-Glo luminescence, LB-PBS (AID 1144)
Details: 12 h, higher = more signal
Entry class follows z-score: low-valued (below -0.6), mid-valued (-0.6 to below 0.2), high-valued (0.2 or more)

Smiles record	Category label
COC(=O)[C@@]1(CCS(=O)(=O)c2ccccc2)N=C(c2ccc(OCCCO)cc2)O[C@H]1c1ccccc1CN=[N+]=[N-]	high-valued
COc1ccc(C#Cc2ccc3c(c2)[C@]2(C(=O)N3)[C@H](C(=O)Nc3nc4ccccc4s3)[C@H]3C(=O)O[C@H](c4ccccc4)[C@H](c4ccccc4)N3[C@@H]2c2ccc(O)cc2)cc1	low-valued
COC(=O)[C@@]1(Cc2ccc(OC)cc2)[C@H]2c3cc(C(=O)N4CCCC4)n(Cc4ccc(C)c(F)c4F)c3C[C@H]2CN1C(=O)c1ccccc1	high-valued
O=C(NCCO)C1=C[C@H](Oc2ccccc2I)[C@@H](O)[C@H](N(Cc2ccco2)C(=O)Cc2ccccc2)C1	mid-valued
Cc1ccc(S[C@]2(C(=O)NC3CC3)CC(=O)N(Cc3ccccc3)[C@@H]2c2ccc(CO)cc2I)cc1	mid-valued
C=C(CCCC)/C(=C/C[C@@H](OC(=O)c1ccncc1)c1ccc(OCCO)cc1)c1cc(C(=O)OC)ccc1OC	mid-valued
COCCOC(=O)N1C(=O)[C@@]2(c3ccccc31)[C@H](c1ccccc1OCCO)N1[C@H](c3ccccc3)[C@H](c3ccccc3)OC(=O)[C@H]1[C@@H]2C(=O)N1CCN(c2ncccn2)CC1	high-valued
C=C(CCCC)/C(=C/C[C@H](OC(C)=O)c1ccccc1OCCO)c1cc(C(=O)OC)ccc1OC	high-valued
COc1cccc(-c2cccc(=O)o2)c1	high-valued
COCCOC(=O)N1C(=O)[C@@]2(c3cc(C#CCC(C(=O)OC)C(=O)OC)ccc31)[C@H](c1ccccc1OCCO)N1[C@H](c3ccccc3)[C@H](c3ccccc3)OC(=O)[C@H]1[C@@H]2C(=O)N1CCN(c2ncccn2)CC1	low-valued
CO[C@H]1O[C@H](CO)[C@@H](OC(=O)Nc2ccc(Oc3ccccc3)cc2)[C@H](OC(=O)Nc2ccc3c(c2)OCO3)[C@H]1OC(=O)Nc1ccc2c(c1)OCO2	low-valued
CC(C)[Si]1(C(C)C)O[C@@H](c2ccccc2)c2cc(-c3ccc(-c4ccc(Cl)c(Cl)c4)o3)nc(-c3ccccc3)c21	mid-valued

Values compiled from PubChem BioAssay.
